Origin of values: PubChem BioAssay (NCATS)

System: P94_40
protocol: qHTS profiling for inhibitors of Plasmodium falciparum proliferation (AID 504749); note: nearly all actives have a fitted effect of over 60% in size
testParameters: P. falciparum in erythrocytes, SYBR Green DNA, 72 h; series mostly up to 28.7 µM
Results filed as inconclusive are left out. Calls of active or inactive are those of the source. Calls come from the whole dose curve; as a rule, active = well fitted inhibition curve with a large enough effect; inconclusive = small, poorly fitted or top-dose-only effect; inactive = flat fitted curve, though single readings scatter.
Labels: active, inactive

# compound, categoryLabel
rows = [
    ("O=C(CCCN1CCN(c2ccccn2)CC1)c1ccc(F)cc1", "inactive"),
    ("NCC(=O)CCC(=O)O", "inactive"),
    ("COc1ccc2[nH]c(S(=O)Cc3ncc(C)c(OC)c3C)nc2n1 (configuration not stated)", "active"),
    ("Cc1cccc(Nc2cc(Cl)nc(SCC(=O)O)n2)c1C", "inactive"),
    ("O=c1[nH]c(=O)c2[nH]c(=O)[nH]c2[nH]1", "inactive"),
    ("NC(CSCC(=O)O)C(=O)O (configuration not stated)", "inactive"),
    ("CC1=C(CC(=O)O)c2cc(F)ccc2/C1=C\\c1ccc(S(C)=O)cc1 (configuration not stated)", "inactive"),
]

---

Each entry below lists one item and its recorded activity change % (negative = inhibition) value.
targetOfAssay: Thyroid hormone receptor beta (Homo sapiens) (UniProt P10828)
Sequence (P10828 whole entry, looked up): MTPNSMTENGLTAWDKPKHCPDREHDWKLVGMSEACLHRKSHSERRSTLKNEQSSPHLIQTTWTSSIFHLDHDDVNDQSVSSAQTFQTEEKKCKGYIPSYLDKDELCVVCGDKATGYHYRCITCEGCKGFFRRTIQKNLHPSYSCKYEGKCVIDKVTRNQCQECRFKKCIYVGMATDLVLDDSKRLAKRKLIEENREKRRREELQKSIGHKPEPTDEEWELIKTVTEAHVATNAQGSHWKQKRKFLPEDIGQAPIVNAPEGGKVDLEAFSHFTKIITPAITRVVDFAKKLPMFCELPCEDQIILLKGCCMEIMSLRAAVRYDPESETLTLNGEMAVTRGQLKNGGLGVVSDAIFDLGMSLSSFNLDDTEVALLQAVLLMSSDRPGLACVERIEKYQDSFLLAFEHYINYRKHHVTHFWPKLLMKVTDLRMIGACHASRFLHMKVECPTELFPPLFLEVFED
protocol: qHTS assay for small molecule antagonists of thyroid hormone receptor beta signaling (AID 588547);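 note: cells stimulated with 0.4 nM T3 agonist during compound exposure; % is set by controls: 0 for no effect and ±100 for the full control effect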
testParameters: TR-UAS-bla HEK293, beta-lactamase ratio, antagonist mode, 18 h
Inconclusive results are not listed.
quantityKind: activity change % (negative = inhibition) (%)

# compound, targetOfAssay, measuredResult
rows = [
    ("Cc1cccc(Nc2cc(Cl)nc(SCC(=O)O)n2)c1C", "Thyroid hormone receptor beta (Homo sapiens) (UniProt P10828)", -2.88),
    ("C[C@]12CC[C@@H]3c4ccc(O)cc4CC[C@H]3[C@@H]1CCC2=O", "Thyroid hormone receptor beta (Homo sapiens) (UniProt P10828)", 17.6),
    ("CN(C)CCCN1c2ccccc2Sc2ccc(Cl)cc21", "Thyroid hormone receptor beta (Homo sapiens) (UniProt P10828)", -25.6),
    ("O=S(=O)(O)NC1CCCCC1", "Thyroid hormone receptor beta (Homo sapiens) (UniProt P10828)", 6.74),
    ("CN(C)CCOC(C)(c1ccccc1)c1ccccn1 (stereo unspecified)", "Thyroid hormone receptor beta (Homo sapiens) (UniProt P10828)", -6.28),
    ("Cc1cc2nc3c(=O)[nH]c(=O)nc-3n(C[C@H](O)[C@H](O)[C@H](O)CO)c2cc1C", "Thyroid hormone receptor beta (Homo sapiens) (UniProt P10828)", -25),
]

---

System: ICS
protocol: qHTS profiling for inhibitors of Plasmodium falciparum proliferation (AID 504749); note: nearly all actives have a fitted effect of over 60% in size
testParameters: P. falciparum in erythrocytes, SYBR Green DNA, 72 h; series mostly up to 28.7 µM
Method: NIH National Institute of Allergy and Infectious Diseases [NIAID] NIH Chemical Genomics Center [NCGC] […] Because mature erythrocytes lack DNA, only Plasmodium-derived DNA is detected. NCGC Assay Protocol Summary: The SYBR Green viability assay was adapted from a method described previously (Plouffe et al., 2008). […] The following morning, fluorescence intensity at 485(14) nm excitation and 535(25) nm emission wavelengths was measured on an EnVision (Perkin Elmer) plate reader. […]
Results filed as inconclusive are left out. Calls of active or inactive are those of the source. The call rests on the fitted dose curve; in most records, active means well fitted inhibition curve with a large enough effect; inconclusive means small, poorly fitted or top-dose-only effect; inactive means flat fitted curve, though single readings scatter.
Labels: 1 (yes) = active, 0 (no) = inactive

# compound, categoryLabel
rows = [
    ("CC(O)COc1ccccc1 (stereo not given)", "0 (no)"),
    ("CC(C)(C)C(=O)NCCCC(=O)O", "0 (no)"),
    ("O=c1cc(CO)occ1O", "0 (no)"),
    ("CCN(CC)CCNC(C(=O)OCCC(C)C)c1ccccc1 (stereo not given)", "1 (yes)"),
    ("COCCOC(=O)C1=C(C)NC(C)=C(C(=O)OC/C=C/c2ccccc2)C1c1cccc([N+](=O)[O-])c1 (stereo not given)", "1 (yes)"),
]

---

Test system: CP291
protocol: qHTS profiling for inhibitors of Plasmodium falciparum proliferation (AID 504749); note: nearly all actives have a fitted effect of over 60% in size; note: potency is the fitted concentration of half-maximal effect
testParameters: P. falciparum in erythrocytes, SYBR Green DNA, 72 h; series mostly up to 28.7 µM
Inconclusive results are not listed. Activity calls are given as the source filed them. Calls come from the whole dose curve; as a rule, active = well fitted inhibition curve with a large enough effect; inconclusive = small, poorly fitted or top-dose-only effect; inactive = flat fitted curve, though single readings scatter.

# compound, Potency
data = [
    ("CCCn1cnc2c1c(=O)n(CCCCC(C)=O)c(=O)n2C", "inactive"),
    ("CCC(=O)Nc1ccc(O)cc1", "inactive"),
    ("C[C@H]1O[C@@H](n2cc(F)c(=O)[nH]c2=O)[C@H](O)[C@@H]1O", "inactive"),
    ("NCCNCCNCCNCCN", "inactive"),
    ("O=S(=O)(O)NC1CCCCC1", "inactive"),
    ("O=C1OC(OC(=O)c2cccnc2Nc2cccc(C(F)(F)F)c2)c2ccccc21 (stereo not drawn)", "inactive"),
    ("CCCCCCCCCCCCOS(=O)(=O)O", "inactive"),
    ("O=c1cc[nH]c(=S)[nH]1", "inactive"),
    ("CC(C(O)c1ccc(O)cc1)N1CCC(Cc2ccccc2)CC1 (stereo not drawn)", "16.9 µM (active)"),
    ("Cc1cccc(Nc2cc(Cl)nc(SCC(=O)O)n2)c1C", "inactive"),
    ("CCOc1ccc2ccccc2c1C(=O)N[C@@H]1C(=O)N2[C@@H]1SC(C)(C)[C@@H]2C(=O)O", "inactive"),
    ("Cc1cc(N)c2ccccc2[n+]1CCCCCCCCCC[n+]1c(C)cc(N)c2ccccc21", "0.405 µM (active)"),
    ("CCC(=O)c1ccc(O)cc1", "inactive"),
]

---

targetOfAssay: Atrial natriuretic peptide receptor 2 (Homo sapiens) (UniProt P20594)
Sequence (P20594 whole entry, looked up): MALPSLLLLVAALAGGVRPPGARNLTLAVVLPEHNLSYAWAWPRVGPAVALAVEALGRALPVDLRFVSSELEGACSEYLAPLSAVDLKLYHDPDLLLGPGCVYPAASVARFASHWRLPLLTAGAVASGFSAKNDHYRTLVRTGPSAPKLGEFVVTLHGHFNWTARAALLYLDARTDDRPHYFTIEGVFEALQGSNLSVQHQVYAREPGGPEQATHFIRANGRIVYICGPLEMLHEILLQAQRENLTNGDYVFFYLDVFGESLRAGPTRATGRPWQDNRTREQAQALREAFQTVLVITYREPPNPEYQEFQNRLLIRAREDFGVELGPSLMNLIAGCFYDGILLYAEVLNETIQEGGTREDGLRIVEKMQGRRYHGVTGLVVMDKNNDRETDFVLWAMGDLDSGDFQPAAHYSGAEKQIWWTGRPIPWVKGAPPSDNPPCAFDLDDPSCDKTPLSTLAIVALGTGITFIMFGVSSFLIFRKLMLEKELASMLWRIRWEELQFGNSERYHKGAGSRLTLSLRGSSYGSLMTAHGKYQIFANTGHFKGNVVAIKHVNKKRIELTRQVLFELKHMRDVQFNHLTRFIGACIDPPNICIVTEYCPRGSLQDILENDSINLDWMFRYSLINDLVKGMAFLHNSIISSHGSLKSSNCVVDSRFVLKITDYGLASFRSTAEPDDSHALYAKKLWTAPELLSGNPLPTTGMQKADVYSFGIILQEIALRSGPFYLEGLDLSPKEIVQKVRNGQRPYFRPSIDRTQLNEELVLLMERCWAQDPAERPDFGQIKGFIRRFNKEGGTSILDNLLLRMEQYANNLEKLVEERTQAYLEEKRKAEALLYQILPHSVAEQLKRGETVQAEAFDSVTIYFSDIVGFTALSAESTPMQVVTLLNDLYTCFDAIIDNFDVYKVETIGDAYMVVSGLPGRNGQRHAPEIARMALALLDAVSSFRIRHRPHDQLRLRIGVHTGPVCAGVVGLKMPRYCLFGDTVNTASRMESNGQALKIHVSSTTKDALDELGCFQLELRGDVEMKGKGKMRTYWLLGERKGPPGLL
protocol: Natriuretic polypeptide receptor (hNpr2) antagonism - Pilot subtype selectivity assay (AID 1347050)
testParameters: NPR2-expressing cells, cGMP antagonist-mode read-out; series mostly up to 38.3 µM
Records with an inconclusive call do not appear. Calls of active or inactive are those of the source. The call rests on the fitted dose curve.
Labels: 1 = active, 0 = inactive

# molecule, categoryLabel
data = [
    ("CN(C)CCCN1c2ccccc2Sc2ccc(Cl)cc21", 1),
    ("C#CCN(C)Cc1ccccc1", 0),
    ("CCN(CC)C(C)CN1c2ccccc2Sc2ccccc21 (stereo unspecified)", 0),
    ("CC(=O)OCC(=O)[C@@]1(O)CC[C@H]2[C@@H]3CCC4=CC(=O)CC[C@]4(C)[C@H]3C(=O)C[C@@]21C", 0),
    ("C[C@](N)(Cc1ccc(O)cc1)C(=O)O", 0),
    ("Nc1ncnc2c1ncn2[C@@H]1O[C@H](CO)[C@@H](O)[C@H]1O", 0),
    ("CC1=C(/C=C/C(C)=C/C=C/C(C)=C/C(=O)O)C(C)(C)CCC1", 0),
    ("CN(C)CCOC(C)(c1ccccc1)c1ccccn1 (stereo unspecified)", 0),
    ("NC1CCN(c2cccc(Cl)n2)CC1", 0),
    ("CCN(CC)CCCC(C)Nc1c2ccc(Cl)cc2nc2ccc(OC)cc12 (stereo unspecified)", 0),
    ("CC[C@H]1CN2CCc3cc(OC)c(OC)cc3[C@@H]2C[C@@H]1C[C@H]1NCCc2cc(OC)c(OC)cc21", 0),
    ("CCN(CC)CCOC(=O)C1(C2CCCCC2)CCCCC1", 0),
    ("O=C1N=C(O)CN1/N=C/c1ccc(-c2ccc([N+](=O)[O-])cc2)o1", 0),
    ("CC1=C(CC(=O)O)c2cc(F)ccc2/C1=C\\c1ccc(S(C)=O)cc1 (stereo unspecified)", 0),
    ("CC(C)(C)[C@]1(O)CCN2C[C@H]3c4ccccc4CCc4cccc(c43)[C@@H]2C1", 0),
    ("NC(=O)c1ncn([C@@H]2O[C@H](CO)[C@@H](O)[C@H]2O)n1", 0),
    ("CNCC(O)c1ccc(O)c(O)c1 (stereo unspecified)", 0),
    ("COCCOC(=O)C1=C(C)NC(C)=C(C(=O)OC/C=C/c2ccccc2)C1c1cccc([N+](=O)[O-])c1 (stereo unspecified)", 0),
    ("CC(C)NC[C@H](O)c1ccc(O)c(O)c1", 0),
    ("OCc1cc(C(O)CNCCCCCCOCCCCc2ccccc2)ccc1O (stereo unspecified)", 0),
    ("Nc1cc(=O)[nH]c(N)n1", 0),
]

---

targetOfAssay: Cytochrome P450 2C9 (Homo sapiens) (UniProt P11712)
Sequence (P11712 whole entry, looked up): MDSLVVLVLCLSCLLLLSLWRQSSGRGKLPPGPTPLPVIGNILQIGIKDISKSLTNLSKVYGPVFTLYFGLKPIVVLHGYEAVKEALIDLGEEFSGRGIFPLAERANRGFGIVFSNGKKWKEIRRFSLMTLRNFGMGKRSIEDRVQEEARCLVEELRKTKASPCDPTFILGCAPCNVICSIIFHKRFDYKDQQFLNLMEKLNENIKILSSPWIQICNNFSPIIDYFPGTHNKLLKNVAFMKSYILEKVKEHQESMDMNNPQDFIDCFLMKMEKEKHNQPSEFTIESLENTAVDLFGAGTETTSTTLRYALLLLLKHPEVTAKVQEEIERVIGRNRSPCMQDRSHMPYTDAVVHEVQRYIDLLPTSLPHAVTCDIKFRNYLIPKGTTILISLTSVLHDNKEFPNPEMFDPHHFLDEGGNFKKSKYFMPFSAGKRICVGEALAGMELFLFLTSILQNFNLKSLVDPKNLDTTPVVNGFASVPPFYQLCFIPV
protocol: Cytochrome P450 family 2 subfamily C member 9 (CYP2C9) small molecule antagonists: luciferase biochemical (cell-free) qHTS assay (AID 1645842); note: nearly all actives have a fitted effect of over 55% in size
testParameters: P450-Glo CYP2C9 enzyme assay, luciferin luminescence; series mostly up to 57.4 µM
Inconclusive results are not listed. Active and inactive are the calls of the source. The call rests on the fitted dose curve; in most records, active means well fitted inhibition curve with a large enough effect in the repeat runs; inconclusive means weak or mixed curves; inactive means no such curve, though single readings can be large or run the other way.
Labels: active, inactive

# compound, categoryLabel
records = [
    ("O=S(=O)(O)c1cc(I)c(O)c2ncccc12", "inactive"),
    ("CC1(C)Oc2ccc(C#N)cc2[C@@H](N2CCCC2=O)[C@@H]1O", "inactive"),
    ("NS(=O)(=O)c1cc2c(cc1C(F)(F)F)NC(Cc1ccccc1)NS2(=O)=O (stereo not given)", "inactive"),
    ("CN1CCC[C@@H]1Cc1c[nH]c2ccc(CCS(=O)(=O)c3ccccc3)cc12", "active"),
    ("N[C@@H](CSCCCO)C(=O)O", "inactive"),
    ("O=c1[nH]cnc2c1ncn2[C@@H]1O[C@H](CO)[C@@H](O)[C@H]1O", "inactive"),
    ("NC1[C@H]2CN(c3nc4c(cc3F)c(=O)c(C(=O)O)cn4-c3ccc(F)cc3F)C[C@@H]12 (stereo not given in full)", "inactive"),
    ("CN(N=O)C(=O)N[C@@H]1[C@@H](O)[C@H](O)[C@@H](CO)O[C@@H]1O", "inactive"),
    ("CN1CCN(C2Cc3ccccc3Sc3ccc(Cl)cc32)CC1 (stereo not given)", "active"),
    ("C[C@@H]1CCN(C(=O)[C@H](CCCN=C(N)N)NS(=O)(=O)c2cccc3c2NC[C@H](C)C3)[C@@H](C(=O)O)C1", "inactive"),
]
